- subject of test: T1, recombinant protein CDH6 (UniProt P55285 54-615)
- T1 construct: also called CDH6 recombinant protein; CDH6 antigen
- T1 sequence (looked up): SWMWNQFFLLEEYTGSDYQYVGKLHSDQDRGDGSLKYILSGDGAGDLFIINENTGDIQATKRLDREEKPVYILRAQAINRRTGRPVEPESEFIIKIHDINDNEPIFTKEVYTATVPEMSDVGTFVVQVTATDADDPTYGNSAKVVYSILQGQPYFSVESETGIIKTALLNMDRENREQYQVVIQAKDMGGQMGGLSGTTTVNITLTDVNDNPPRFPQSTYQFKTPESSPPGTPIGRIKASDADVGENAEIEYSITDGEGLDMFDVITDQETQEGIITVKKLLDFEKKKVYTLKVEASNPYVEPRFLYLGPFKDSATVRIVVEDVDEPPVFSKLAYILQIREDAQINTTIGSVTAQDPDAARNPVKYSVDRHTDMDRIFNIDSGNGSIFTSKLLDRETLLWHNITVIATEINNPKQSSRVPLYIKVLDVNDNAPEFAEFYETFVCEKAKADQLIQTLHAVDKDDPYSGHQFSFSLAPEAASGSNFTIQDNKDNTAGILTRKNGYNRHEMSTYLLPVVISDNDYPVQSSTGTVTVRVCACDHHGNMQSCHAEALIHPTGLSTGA
- test protocol: ELISA, CDH6 coated; antibody 25 ng/mL
Here, each record is paired with measured OD450 data.

{"binder": "CL069463 antibody (antibody, V domains shown, Mouse monoclonal antibody from hybridoma, purified from ascites with Protein A/G; also called #13; No. 13) VH: EVQLVESGGGLVQPKGSLKLSCAASGFTFNTYALTWVRQAPGKGLEWVGRIKSKNKDYETYYADSVKDRFTISRNDSQSLLYLQMNNLKTEDTAIYYCVRQNWNYFDYWGQGTTLTVSS VL: DIQMTQSPASLAASVGETVTITCRASENIYYSLAWYQQRQGKSPQLLIYNANSLKDGVPSRFSGSGSGTQYSMKINSMQPEDTATYFCQQAYDVPPTFGGGTKLEIK", "OD450 [OD450]": 1.8}
{"binder": "CL069066 antibody (antibody, V domains shown, Mouse monoclonal antibody from hybridoma, purified from ascites with Protein A/G; also called #4; No. 4) VH: EVKLLESGGGLVQPGGSLKLSCAASGFDFSRYWMTWVRQAPGKGLEWIGEINPDSSTINYTPSLKDKFIISRDNAKNTLYLQMNKVTSEDTALYYCTRRPHYYGYFDSWGQGTTLTVSS VL: DIVLTQSPASLAVSLGQRATISCRASESVEYYGTTLMQWYQQKPGQPPQLLIYAGSNVESGVPARFSGSGSGTEFSLNIHPVEEDDIGMYFCQQSRKVPWTFGGGTKLEIK", "OD450 [OD450]": 1.69}
{"binder": "CL069439 antibody (antibody, V domains shown, Mouse monoclonal antibody from hybridoma, purified from ascites with Protein A/G; also called #16; No. 16) VH: EVQLQQSGTELVRTGASVKISCKASGYSFTGYYIHWIKQSHGESLEWIGYISCFNGDTSYNQNFKDRATFNVDTSSSTAYMQFISLTSEDSAVYYCVRGRYGNFNYFDYWGQGTTLTVSS VL: DIVLTQSPASLAVSLGQRATISCRASESVEFYGTSLMQWFQQKPGHPPQLLIYATSNVDSGVPARFSASGSGTDFSLNIHPVEEADIAMYFCQQSRRIPWTFGGGTKLEIK", "OD450 [OD450]": 3.69}

Where do the numbers come from? From patent US20250090677A1.
